Data provenance: PubChem BioAssay AID1963973

# System: 883617-216-R-J1-PDC tumor spheroids, viability
# PROCEDURE SUMMARY: Anticancer human tumor 883617-216-R-J1-PDC patient-derived bladder carcinoma cell line growth inhibition [PI3K]
# EXPERIMENTAL PARAMETERS: compound 1 µM; hits give low values; spheroids with HUVEC and MSC

COMPOUND | viability, T/C
CNC(=O)c1ccc(N2C(=S)N(c3ccc(C#N)c(C(F)(F)F)c3)C(=O)C2(C)C)cc1F | 98.9% [middle of 4 runs]
C#Cc1c(F)ccc2cc(O)cc(-c3ncc4c(N5CC6CCC(C5)N6)nc(OCC56CCCN5CC(F)C6)nc4c3F)c12 (stereo not given) | 88% [middle of 4 runs]
CC(Nc1ccc2c(c1)OCCn1cc(N3C(=O)OCC3C(F)F)nc1-2)C(N)=O (stereo not given) | 18.9% [middle of 8 runs]
CC1(C)CCC(CN2CCN(c3ccc(C(=O)NS(=O)(=O)c4ccc(NCC5CCOCC5)c([N+](=O)[O-])c4)c(Oc4cnc5[nH]ccc5c4)c3)CC2)=C(c2ccc(Cl)cc2)C1 | 94.3% [middle of 4 runs]
Cn1nccc1Nc1nccc(-c2ccn(C(CO)c3ccc(Cl)c(F)c3)c(=O)c2)n1 (stereo not given) | 79.5% [middle of 4 runs]

====

# Test system: 883617-216-R-J1-PDC tumor spheroids, viability
# PROCEDURE SUMMARY: Anticancer human tumor 883617-216-R-J1-PDC cell line growth inhibition [PI3K];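 note: spheroids exposed to agents for 7 days before the viability read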
# EXPERIMENTAL PARAMETERS: second compound 0.316 µM; first compound 0.0316 µM; hits give low values; spheroids with HUVEC and MSC

MOLECULE | viability, T/C, %
CC(Cn1ccc(-c2ccc(C#N)c(Cl)c2)n1)NC(=O)c1cc(C(C)O)[nH]n1 (stereo unspecified) + Cc1nc(NC(=O)N2CCCC2C(N)=O)sc1-c1ccnc(C(C)(C)C(F)(F)F)c1 | 45.4
CC1(C)CCC(Nc2ncc(C(F)(F)F)c(-c3c[nH]c4c(P(C)(C)=O)c(C#N)ccc34)n2)CN1 (stereo unspecified) + Cc1nc(NC(=O)N2CCCC2C(N)=O)sc1-c1ccnc(C(C)(C)C(F)(F)F)c1 | 23.2
CC(Cn1ccc(-c2ccc(C#N)c(Cl)c2)n1)NC(=O)c1cc(C(C)O)[nH]n1 (stereo unspecified) + CC(Nc1ncnc2nc[nH]c12)c1cc2cccc(Cl)c2c(=O)n1-c1ccccc1 | 95.8
Cn1nccc1Nc1nccc(-c2ccn(C(CO)c3ccc(Cl)c(F)c3)c(=O)c2)n1 (stereo unspecified) + CC(Nc1ccc2c(c1)OCCn1cc(N3C(=O)OCC3C(F)F)nc1-2)C(N)=O | 25.1
CC(C)NCC(C(=O)N1CCN(c2ncnc3c2C(C)CC3O)CC1)c1ccc(Cl)cc1 (stereo unspecified) + COc1c(OCCCN2CCOCC2)ccc2c3n(c(=NC(=O)c4cnc(N)nc4)nc12)CCN3 | 5.34
Cn1ncc(Cl)c1-c1cc(C(=O)NC(CN)Cc2cccc(F)c2)sc1Cl (stereo unspecified) + COc1c(OCCCN2CCOCC2)ccc2c3n(c(=NC(=O)c4cnc(N)nc4)nc12)CCN3 | 6.38
CC(=O)c1c(C)c2cnc(Nc3ccc(N4CCNCC4)cn3)nc2n(C2CCCC2)c1=O + Cc1nc(NC(=O)N2CCCC2C(N)=O)sc1-c1ccnc(C(C)(C)C(F)(F)F)c1 | 34.5
CC(C)NCC(C(=O)N1CCN(c2ncnc3c2C(C)CC3O)CC1)c1ccc(Cl)cc1 (stereo unspecified) + Cc1nc(NC(=O)N2CCCC2C(N)=O)sc1-c1ccnc(C(C)(C)C(F)(F)F)c1 | 37.7
C#Cc1c(F)ccc2cc(O)cc(-c3ncc4c(N5CC6CCC(C5)N6)nc(OCC56CCCN5CC(F)C6)nc4c3F)c12 (stereo unspecified) + CC(Nc1ccc2c(c1)OCCn1cc(N3C(=O)OCC3C(F)F)nc1-2)C(N)=O | 27.6
CC(C)n1nc(-c2ccc3oc(N)nc3c2)c2c(N)ncnc21 + CC(Nc1ccc2c(c1)OCCn1cc(N3C(=O)OCC3C(F)F)nc1-2)C(N)=O | 14.4
CC(C)NCC(C(=O)N1CCN(c2ncnc3c2C(C)CC3O)CC1)c1ccc(Cl)cc1 (stereo unspecified) + CC(Nc1ncnc2nc[nH]c12)c1cc2cccc(Cl)c2c(=O)n1-c1ccccc1 | 97.8
